- Protocol Description: in vitro
- Protocol Conditions: human
Catalogue of IC50 readings, one per entry.

Worked cases, answers included:
Value lookup for IC50; key = C[C@H]1[C@@H](OC(=O)CCC(O)c2ccc(Cl)cc2)O[C@@H]2O[C@@]3(C)CC[C@H]4[C@H](C)CC[C@@H]1[C@@]24OO3 (stereo partly drawn)
0.0877 µM

Value lookup for IC50; key = Cc1cc(C(=O)O)ccc1CO[C@@H]1O[C@@H]2O[C@@]3(C)CC[C@H]4[C@H](C)CC[C@@H]([C@H]1C)[C@@]24OO3
> 20 µM

Read the next record carefully.
Value lookup for IC50; key = C[C@H]1[C@@H](Oc2ccc(C(C)(C)C(=O)O)cc2Cl)O[C@@H]2O[C@@]3(C)CC[C@H]4[C@H](C)CC[C@@H]1[C@@]24OO3
0.16 µM

----------
Catalogue of pEC50 readings, one per entry.
- Tested on: HL-60
- Protocol Description: HL-60 differentiation potency
- Type: cell-based
- Protocol Conditions: Homo sapiens
When answering, recall that pEC50 equals minus log10 of the concentration in mol/L, and write that number alone.

Value lookup for pEC50; key = C[C@H]1[C@@H](Oc2cc(F)cc(OCC(=O)O)c2)O[C@@H]2O[C@@]3(C)CC[C@H]4[C@H](C)CC[C@@H]1[C@@]24OO3
7.15

Value lookup for pEC50; key = C[C@H]1[C@@H](Oc2ccc(C(=O)N[C@H](C(=O)O)C3CCCCC3)cc2)O[C@@H]2O[C@@]3(C)CC[C@H]4[C@H](C)CC[C@@H]1[C@@]24OO3
7.77

Value lookup for pEC50; key = C[C@H]1[C@@H](OCC2CCC(C(=O)O)O2)O[C@@H]2O[C@@]3(C)CC[C@H]4[C@H](C)CC[C@@H]1[C@@]24OO3 (stereo partly drawn)
4.80

----------
- Protocol Description: in vitro
- Protocol Conditions: human
Catalogue of pIC50 readings, one per entry.
When answering, recall that pIC50 equals minus log10 of the concentration in mol/L, and write that number alone.

Worked cases, answers included:
Value lookup for pIC50; key = C[C@H]1[C@H](NCCS(=O)(=O)C(F)(F)F)O[C@@H]2O[C@@]3(C)CC[C@H]4[C@H](C)CC[C@@H]1[C@@]24OO3
6.35

Value lookup for pIC50; key = C[C@H]1[C@@H](Oc2ccc(-c3ccc(C(=O)O)cc3)cc2)O[C@@H]2O[C@@]3(C)CC[C@H]4[C@H](C)CC[C@@H]1[C@@]24OO3
7.40

Read the next record carefully.
Value lookup for pIC50; key = C[C@H]1[C@@H](OCc2ccc(C(=O)NO)cc2)O[C@@H]2O[C@@]3(C)CC[C@H]4[C@H](C)CC[C@@H]1[C@@]24OO3
5.54

----------
Catalogue of IC50 readings, one per entry.
- Protocol Description: in vitro
- Protocol Conditions: human
Please respond with the number in µM and leave the unit unwritten.

Worked cases, answers included:
Value lookup for IC50; key = C[C@H]1[C@@H](Oc2ccc(CC(=O)N[C@H]3CC[C@@H](C(=O)O)C3)cc2)O[C@@H]2O[C@@]3(C)CC[C@H]4[C@H](C)CC[C@@H]1[C@@]24OO3 [Compound 239]
16.2

Value lookup for IC50; key = CC(C)[C@H](NC(=O)c1ccc(O[C@H]2O[C@@H]3O[C@@]4(C)CC[C@H]5[C@H](C)CC[C@@H]([C@H]2C)[C@@]35OO4)cc1)C(=O)O [Compound 236]
9.1

Read the next record carefully.
Value lookup for IC50; key = C[C@H]1[C@@H](O[C@H]2C[C@@H](C(=O)N[C@H](C(=O)O)c3ccc(C(F)(F)F)cc3)C2)O[C@@H]2O[C@@]3(C)CC[C@H]4[C@H](C)CC[C@@H]1[C@@]24OO3 [Compound 257]
11.5
